Please go through the items and note down their IC50.
# measurement.target: UniProt P08581
# Sequence (P08581 25-1390): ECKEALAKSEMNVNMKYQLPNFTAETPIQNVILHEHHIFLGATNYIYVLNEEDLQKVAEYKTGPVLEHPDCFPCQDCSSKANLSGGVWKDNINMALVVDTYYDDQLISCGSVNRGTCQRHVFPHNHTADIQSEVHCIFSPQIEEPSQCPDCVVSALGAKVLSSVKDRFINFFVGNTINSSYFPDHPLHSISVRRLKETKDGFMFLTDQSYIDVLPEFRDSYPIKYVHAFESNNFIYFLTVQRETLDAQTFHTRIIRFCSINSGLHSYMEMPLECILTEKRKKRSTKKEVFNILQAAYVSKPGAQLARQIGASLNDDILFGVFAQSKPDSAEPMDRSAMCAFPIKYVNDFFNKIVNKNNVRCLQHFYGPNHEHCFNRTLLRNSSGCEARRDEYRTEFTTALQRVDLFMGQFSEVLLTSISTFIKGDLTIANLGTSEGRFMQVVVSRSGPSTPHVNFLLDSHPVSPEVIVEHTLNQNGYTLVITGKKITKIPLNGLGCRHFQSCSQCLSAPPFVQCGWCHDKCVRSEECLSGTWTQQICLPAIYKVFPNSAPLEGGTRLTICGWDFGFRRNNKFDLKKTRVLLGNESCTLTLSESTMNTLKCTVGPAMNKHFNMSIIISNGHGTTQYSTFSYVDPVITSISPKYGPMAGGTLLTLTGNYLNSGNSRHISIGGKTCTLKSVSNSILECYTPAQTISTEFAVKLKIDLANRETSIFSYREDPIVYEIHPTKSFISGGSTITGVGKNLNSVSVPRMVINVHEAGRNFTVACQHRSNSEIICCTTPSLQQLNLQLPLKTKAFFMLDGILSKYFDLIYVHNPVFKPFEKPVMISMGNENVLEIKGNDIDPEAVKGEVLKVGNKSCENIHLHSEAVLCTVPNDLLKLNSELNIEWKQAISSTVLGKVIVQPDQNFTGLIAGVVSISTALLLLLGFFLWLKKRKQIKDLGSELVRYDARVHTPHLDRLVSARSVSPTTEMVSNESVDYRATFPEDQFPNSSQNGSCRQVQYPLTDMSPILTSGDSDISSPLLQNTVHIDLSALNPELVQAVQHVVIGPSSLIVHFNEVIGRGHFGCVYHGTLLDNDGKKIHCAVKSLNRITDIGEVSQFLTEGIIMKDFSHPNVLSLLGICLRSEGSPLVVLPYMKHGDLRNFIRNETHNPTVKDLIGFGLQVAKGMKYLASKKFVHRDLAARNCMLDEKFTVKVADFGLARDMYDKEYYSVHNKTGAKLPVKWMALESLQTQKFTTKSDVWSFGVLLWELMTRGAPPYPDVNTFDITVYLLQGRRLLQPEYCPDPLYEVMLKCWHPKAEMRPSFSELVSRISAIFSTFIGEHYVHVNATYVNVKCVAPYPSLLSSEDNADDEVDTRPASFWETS
# procedure.text: Enzymatic kinase assay (ADP-GLO), C-MET
# Format: biochemical
# applied.conditions: 10 μM ATP, poly (Glu4, Tyr1) substrate, 60 min room temperature, luminescence; read-out: Enzymatic assay IC50 (nM) C-MET

Below are some molecules; for each one, tell me its IC50.
1. Nc1nccc(Oc2ccc(NC(=O)c3ccnn(-c4ccc(F)cc4)c3=O)cc2F)c1Cl
2. CC(C)N1CCC(CC#Cc2c(Oc3ccc(NC(=O)c4ccnn(-c5ccc(F)cc5)c4=O)cc3F)ccnc2N)CC1
3. COCCN1CCN(C(=O)C#Cc2c(Oc3ccc(NC(=O)c4ccnn(-c5ccc(F)cc5)c4=O)cc3F)ccnc2N)CC1
4. COCCONC(=O)C#Cc1c(Oc2ccc(NC(=O)c3ccnn(-c4ccc(F)cc4)c3=O)cc2F)ccnc1N
5. Nc1nccc(Oc2ccc(NC(=O)c3ccnn(-c4ccc(F)cc4)c3=O)cc2F)c1-c1ccc(Oc2ccccc2)cc1

Reply text:
< 1000 nM
< 100 nM
< 10 nM
< 10 nM
> 1000 nM
